# Lookup of reported melting point keyed by entry
Measured quantity: melting point

# Compound, Measured quantity, Recorded value
records = [
    ("c1ccc(COc2ccc3sc4c(c3c2)SCCNC4)cc1 [kb-NB165-81]", "melting point", "144 to 145 °C"),
    ("COc1ccc2c(c1)c1c([s+]2[O-])C(=O)NCCS1 (stereo not drawn) [kb-NB184-25]", "melting point", "284 to 287 °C"),
    ("O=C1NCCCc2c1oc1cc(Cl)c(O)c(Cl)c21 [kb-NB96-43]", "melting point", "298 to 301 °C"),
    ("O=C1NCCC(O)c2c1oc1ccc(O)cc21 (stereo not drawn) [kb-NB123-89]", "melting point", "280 to 282 °C"),
    ("COc1ccc2oc3c(c2c1)CCN(C)C3=O [kb-NB123-37]", "melting point", "168 to 172 °C"),
    ("NCCN1CCSc2c(sc3ccc(O)cc23)C1=O [kb-NB165-75]", "melting point", "250 to 254 °C"),
    ("C=CCc1c(O)ccc2oc3c(c12)CCCNC3=O [kb-NB96-02]", "melting point", "255 to 257 °C"),
    ("COc1ccc2sc3c(c2c1)SCCN(C)C3=O [kb-NB165-16]", "melting point", "160 to 161 °C"),
    ("O=C1NCCC(=NOCc2ccccc2)c2c1oc1ccc(O)cc21 [kb-NB142-10]", "melting point", "103 to 110 °C"),
    ("O=C1NCCSc2c1[s+]([O-])c1ccc(O)cc21 (stereo not drawn) [kb-NB184-22]", "melting point", "160 to 163 °C (dec.)"),
    ("COc1ccc2sc3c(c2c1)[S+]([O-])CCNC3=O (stereo not drawn) [kb-NB184-45]", "melting point", "215 to 217 °C"),
    ("C=CCOc1ccc2oc(=O)c3c(c2c1)CCCN3 [kb-NB77-83]", "melting point", "90 to 91 °C"),
    ("O=C(OCc1ccccc1)N1CCCc2c1c(=O)oc1ccc(O)cc21 [kb-NB77-91]", "melting point", "235 to 237 °C"),
    ("Nc1ccc2[nH]c3c(c2c1)CCNC3=O [kb-NB142-08]", "melting point", "280 to 282 °C"),
    ("O=C(CCl)Nc1ccc2sc3c(c2c1)SCCNC3=O [mcf292-09]", "melting point", "229 to 230 °C (dec.)"),
    ("COc1ccc2oc3c(c2c1)CCNC3=O [kb-NB123-32]", "melting point", "237 to 241 °C"),
    ("CC(=O)Nc1ccc2[nH]c3c(c2c1)CCNC3=O [kb-NB123-93]", "melting point", "> 300 °C"),
    ("C=CCOc1ccc2oc3c(c2c1)CCCNC3=O [kb-NB77-84]", "melting point", "198 to 200 °C"),
    ("O=C1NCCCSc2c1sc1ccc(OCc3ccccc3)cc21 [kb-NB165-89]", "melting point", "198 to 199 °C"),
    ("O=C1NCCC(=NNc2ccccc2)c2c1oc1ccc(O)cc21 [kb-NB142-05]", "melting point", "234 to 236 °C"),
    ("C=CCOc1ccc2oc3c(c2c1Cl)CCCNC3=O [kb-NB96-50]", "melting point", "192 to 194 °C"),
    ("CC(=O)Nc1ccc2[nH]c3c(c2c1)CCCNC3=O [kb-NB123-94]", "melting point", "> 300 °C"),
    ("Cc1ccc(S(=O)(=O)NN=C2CCNC(=O)c3oc4ccc(O)cc4c32)cc1 [kb-NB142-11]", "melting point", "220 to 224 °C"),
    ("O=C1NCCc2c1oc1ccc(O)cc21 [kb-NB123-23A]", "melting point", "265 to 268 °C"),
    ("CC(C)(C)[Si](C)(C)Oc1ccc2oc(=O)c3c(c2c1)CCCN3 [kb-NB77-78]", "melting point", "117 to 119 °C"),
    ("Oc1ccc2sc3c(c2c1)SCCNC3 [kb-NB165-83]", "melting point", "182 to 184 °C (dec.)"),
    ("CC=Cc1c(O)ccc2oc3c(c12)CCCNC3=O [kb-NB96-30]", "melting point", "> 300 °C"),
]
